- ASSAY_TARGET: Bile acid receptor (Homo sapiens)
- EXPERIMENT: ATG_IR1_CIS: Attagene CIS-FACTORIAL HepG2 Assay for human Nuclear Receptor Subfamily 1 Group H Member 4 (NR1H4), IR1 submotif (AID 2282946)
- CONDITION_SET: IR1 reporter transcription, actives raise or lower the signal
Activity calls are given as the source filed them. Rule for the calls: active = hit-call score of the fitted dose curve at least 0.9, where 1 is the maximum; inactive = score below 0.9.
Outcome field: choose from class 1 = active, class 0 = inactive

Please review the following examples before continuing.
C=CC(=O)OCC(Br)CBr (centres undefined)
class 1
C[Si](C)(C)O[Si](O)(O)O
class 0
NC(=O)N=NC(N)=O
class 0
OCCN(CCO)c1ccccc1
class 0
O=C(O)C(c1ccc(Cl)cc1)c1ccc(Cl)cc1
class 0
COc1ccc([C@@H]2CC(=O)c3c(O)cc(O[C@@H]4O[C@H](CO[C@@H]5O[C@@H](C)[C@H](O)[C@@H](O)[C@H]5O)[C@@H](O)[C@H](O)[C@H]4O)cc3O2)cc1OC
class 0
CC(C)(C)c1n[nH]c(=O)n(N)c1=O
class 0
C=CC=CC=CCCCCC
class 1
O=S(=O)(O)c1cc(S(=O)(=O)O)c2ccc3c(S(=O)(=O)O)cc(S(=O)(=O)O)c4ccc1c2c43
class 0
CC(=O)[C@H]1[C@H](C#N)C[C@H]2[C@@H]3CC=C4C[C@@H](O)CC[C@]4(C)[C@H]3CC[C@@]21C
class 0

Ask: Outcome logged for CCCCCCCC/C=C\CCCCCCCC(=O)O in this assay:
Reply: class 1

Ask: Same question, CC(C)(C)c1ccc(OC(=O)c2ccccc2O)cc1 this time
Reply: class 0

Ask: Same question, O=C(O)c1cc(Cl)cc([N+](=O)[O-])c1Cl this time
Reply: class 0

Data provenance: PubChem BioAssay (EPA / NIEHS)
